Numbers sourced from PubChem BioAssay (NCI).

tested on: SR leukemia; assay: NCI tumour cell line growth inhibition, 48 h; in the data active = GI50 below about 0.43 µM; inactive = the rest
Permitted responses: Y for active, N for inactive

Record excerpt, results attached:
>  <Compound>
C[n+]1c(/C=C\C=C\N2CCCCC2)sc2ccccc21

>  <Answer label>
Y

$$$$
>  <Compound>
O=C(Nc1ccc(Cl)cc1Cl)c1ccc(NC2=C(Cl)C(=O)N(Cc3ccccc3)C2=O)cc1

>  <Answer label>
N

$$$$
>  <Compound>
Cc1ccc(C(=O)N(CCCN)[C@@H](c2nc3cc(Cl)ccc3c(=O)n2Cc2ccccc2)C(C)C)cc1

>  <Answer label>
Y

$$$$
>  <Compound>
COc1ccc(-c2[nH]ncc2-c2cc3c(c(OC)c2)OCC(=O)N3)cc1

>  <Answer label>
Y

$$$$

**Q:** Call for entry `Cc1c2cc[nH]c(=O)c2c(C)c2c1[nH]c1cc(OCCN3CCN(C)CC3)ccc12` :
**A:** Y

**Q:** Which result was noted for this compound in the test: `COc1cc(-c2nn3c(/C=C4/C(=O)Nc5ccccc54)c(-c4ccc(C)cc4)nc3s2)cc(OC)c1OC`
**A:** N

**Q:** # outcome recorded in this test, key = CO[C@H](C(=O)[C@@H](O)[C@@H](C)O)[C@@H]1Cc2cc3cc(O[C@H]4C[C@@H](O[C@H]5C[C@@H](O)[C@H](O)C(C)O5)[C@H](O)C(C)O4)c(C)c(O)c3c(O)c2C(=O)[C@H]1O[C@H]1C[C@@H](O[C@H]2C[C@@H](O[C@H]3C[C@@H](OC)[C@H](O)C(C)O3)[C@@H](O)C(C)O2)C(O)(O)C(C)O1 (stereo partly drawn)
**A:** Y

**Q:** What was the test verdict on C(=Nc1ccccc1)C1CCCC[N-]1.C(=Nc1ccccc1)C1CCCC[N-]1.[Cu+2].[O-][Cl+3]([O-])([O-])O (stereo not drawn) ?
**A:** N

**Q:** Hi, do you know how `Cc1ccccc1NC(=S)Nc1ccccn1` came out in this test?
**A:** N

**Q:** Assay result, entry `CC(=O)N1CCN(C2=Nc3ccccc3CO2)C1=S` — outcome?
**A:** N

**Q:** # lookup: test call for `CC(=O)C1=C(O)C=C2Oc3c(C(=O)/C=C/c4cc(C(F)(F)F)cc(C(F)(F)F)c4)c(O)c(C)c(O)c3[C@]2(C)C1=O`
**A:** N

**Q:** Recorded test call requested for `COC(=O)[C@@H](NC(=O)NC(=O)NC(=O)CI)C(C)C`
**A:** N

**Q:** Just curious, what result did `COc1cc(/C(Cl)=C/C=C/C(=O)c2c(C)[n+]([O-])c3ccc(Cl)cc3[n+]2[O-])cc(OC)c1OC` get here?
**A:** N

---

system: A498 renal; experiment: NCI tumour cell line growth inhibition, 48 h; in the data active = GI50 below about 0.43 µM; inactive = the rest
Lab note: assign the record to one of Yes = active, No = inactive

Reference set, count: 8
>  <Compound>
O=[N+]([O-])c1ccc(Nc2ccccc2-c2ccccc2)c2nonc12

>  <Answer label>
No

$$$$
>  <Compound>
COC(=O)[C@@H](NC(=O)NC(=O)NC(=O)CI)C(C)C

>  <Answer label>
No

$$$$
>  <Compound>
C(=Nc1ccccc1)C1CCCC[N-]1.C(=Nc1ccccc1)C1CCCC[N-]1.[Cu+2].[O-][Cl+3]([O-])([O-])O (centres undefined)

>  <Answer label>
No

$$$$
>  <Compound>
Cc1ccccc1NC(=S)Nc1ccccn1

>  <Answer label>
No

$$$$
>  <Compound>
COc1cc(/C(Cl)=C/C=C/C(=O)c2c(C)[n+]([O-])c3ccc(Cl)cc3[n+]2[O-])cc(OC)c1OC

>  <Answer label>
No

$$$$
>  <Compound>
c1ccc(CNC2CC(NCc3ccccn3)CC(NCc3ccccn3)C2)nc1 (centres undefined)

>  <Answer label>
No

$$$$
>  <Compound>
COc1cccc(C2CC(c3cc(OC)c(OC)c(OC)c3)=NN2)c1 (centres undefined)

>  <Answer label>
No

$$$$
>  <Compound>
COc1cc2c(cc1OCCCN1CCN(CCCOc3cc4c(cc3OC)C(=O)N3CCC[C@H]3C=N4)CC1)C=CC(C)(C)O2

>  <Answer label>
No

$$$$

Let's switch to this compound now.
**Q:** Look up the recorded call for `COc1ccc(-c2[nH]ncc2-c2cc3c(c(OC)c2)OCC(=O)N3)cc1` in this test.
**A:** Yes
